biological target: G-protein coupled receptor 55 (Homo sapiens); experiment: Antagonist activity at recombinant human GPR55 expressed in CHO cells assessed as inhibition of lysophosphatidylinositol-induced beta-arrestin recruitment preincubated for 60 mins followed by lysophosphatidylinositol addition for 90 mins measured for 1 sec by luminescence assay
Sequence (Q9Y2T6 whole entry): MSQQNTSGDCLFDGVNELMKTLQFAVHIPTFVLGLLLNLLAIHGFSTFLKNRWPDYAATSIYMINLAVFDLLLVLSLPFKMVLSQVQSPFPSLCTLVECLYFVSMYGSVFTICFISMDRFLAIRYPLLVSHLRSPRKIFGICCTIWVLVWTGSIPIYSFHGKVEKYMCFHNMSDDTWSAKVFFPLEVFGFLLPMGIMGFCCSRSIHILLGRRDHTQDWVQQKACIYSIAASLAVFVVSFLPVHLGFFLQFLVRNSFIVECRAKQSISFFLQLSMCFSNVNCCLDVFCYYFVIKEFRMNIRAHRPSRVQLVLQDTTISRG
pIC50: −log10 of the molar value.
Binary call on pIC50: Condition met from 5 upward, Condition not met beneath that.

Hi, just wondering whether CN1C(=N)NC(=O)/C1=C/c1cccc(OCc2ccc(Cl)cc2)c1 shows pIC50 of 5 or higher.
Condition not met

----------
biological target: Cannabinoid receptor 1 (Homo sapiens, UniProt P21554); test: Displacement of [3H]CP55940 from recombinant human CB1 receptor expressed in CHO cell membranes after 2 hrs by liquid scintillation counting method; design: concentration or dose not given beside the values; settings: concentration not given here
Sequence (P21554 whole entry): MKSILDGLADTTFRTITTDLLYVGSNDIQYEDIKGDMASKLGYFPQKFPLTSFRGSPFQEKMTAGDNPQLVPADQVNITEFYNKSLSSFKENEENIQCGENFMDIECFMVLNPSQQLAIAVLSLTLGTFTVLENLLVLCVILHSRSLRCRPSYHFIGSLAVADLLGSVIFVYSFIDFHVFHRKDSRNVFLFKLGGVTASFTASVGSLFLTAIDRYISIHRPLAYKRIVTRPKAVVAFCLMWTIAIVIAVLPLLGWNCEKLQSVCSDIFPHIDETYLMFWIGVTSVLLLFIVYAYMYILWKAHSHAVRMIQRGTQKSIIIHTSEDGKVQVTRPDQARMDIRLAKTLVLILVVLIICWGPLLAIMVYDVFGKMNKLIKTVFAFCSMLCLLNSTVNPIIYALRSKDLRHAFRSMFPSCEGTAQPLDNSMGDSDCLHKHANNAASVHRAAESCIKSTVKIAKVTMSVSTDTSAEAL
test readout: inhibition (%)
Numbers only, in %.

# example entries with known answers
item smiles	inhibition (%)
O=C1NC(SCc2ccccc2)=N/C1=C\c1cccc(OCc2ccc(Cl)cc2)c1	11
O=C1/C(=C/c2cccc(OCCCCCCCOc3ccc(Cl)cc3)c2)N=C2SCCCN12	46
O=C1/C(=C/c2cccc(OCCc3ccccc3)c2)N=C2SCCCN12	24
O=C1NC(SCc2ccc(Br)cc2)=N/C1=C\c1cccc(OCc2ccc(Cl)cc2)c1	31
CSC1=N/C(=C\c2cccc(OCc3ccc(Cl)cc3)c2)C(=O)N1C	19
O=C1/C(=C/c2cccc(OCc3ccc(Br)cc3)c2)N=C2SCCCN12	4

For each of the compounds below, state inhibition.
1. O=C1NC(=S)N/C1=C\c1cccc(OCc2ccc(Cl)cc2)c1
2. O=C1/C(=C/c2cccc(OCCCCCCOc3cccc(Cl)c3)c2)N=C2SCCCN12
3. Cc1ccc(CSC2=N/C(=C\c3cccc(OCc4ccc(Cl)cc4)c3)C(=O)N2C)cc1
4. O=C1/C(=C/c2cccc(OCc3ccc(F)cc3)c2)N=C2SCCCN12
5. O=C1NC(SCc2ccc(Cl)cc2)=N/C1=C\c1cccc(OCc2ccc(Cl)cc2)c1

1. 30
2. 33
3. 15
4. 35
5. 36

----------
For each record, write down the corresponding %max.
target: N-arachidonyl glycine receptor (Homo sapiens) (UniProt Q14330); assay: Agonist activity at recombinant human GPR18 expressed in CHO cells assessed as increase in beta-arrestin recruitment incubated for 60 mins measured for 1 sec by luminescence assay; assay type: functional, cell-based
Sequence (Q14330 whole entry): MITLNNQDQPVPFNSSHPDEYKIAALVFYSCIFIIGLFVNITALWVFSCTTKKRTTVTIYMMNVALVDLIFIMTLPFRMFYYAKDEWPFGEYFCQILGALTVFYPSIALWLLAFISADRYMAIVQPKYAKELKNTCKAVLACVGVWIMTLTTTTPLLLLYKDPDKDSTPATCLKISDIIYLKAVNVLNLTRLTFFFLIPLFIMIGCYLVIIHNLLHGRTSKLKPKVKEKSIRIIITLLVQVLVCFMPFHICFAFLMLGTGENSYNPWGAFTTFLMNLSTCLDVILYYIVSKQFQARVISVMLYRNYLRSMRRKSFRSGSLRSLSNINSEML
Give bare numbers, in %.

# example entries with known answers
item smiles	unit spec	%max
O=C1NC(=S)S/C1=C\c1cccc(OCc2ccc(Cl)cc2)c1	%	-38
Cc1ccc(OCCCCCCOc2cccc(/C=C3\N=C4SCCCN4C3=O)c2)cc1	%	-12
O=C1NC(=S)N/C1=C\c1cccc(OCc2ccc(Cl)cc2)c1	%	-14
O=C1/C(=C/c2cccc(OCCCCCCCOc3ccc(Cl)cc3)c2)N=C2SCCCN12	%	3
O=C1/C(=C/c2cccc(OCCCCCCOc3cccc(Cl)c3)c2)N=C2SCCCN12	%	0
O=C1/C(=C/c2cccc(OCCCc3ccccc3)c2)N=C2SCCCN12	%	-30

For each of the compounds below, state %max.
1. O=C1/C(=C/c2cccc(OCCCCCCOc3ccc(Cl)cc3)c2)N=C2SCCCN12
2. Cc1cccc(C)c1OCCCCCCOc1cccc(/C=C2\N=C3SCCCN3C2=O)c1
3. Cc1ccc(CSC2=N/C(=C\c3cccc(OCc4ccc(Cl)cc4)c3)C(=O)N2)cc1
4. O=C1NC(SCc2ccc(Cl)cc2)=N/C1=C\c1cccc(OCc2ccc(Cl)cc2)c1
5. CCc1ccc(OCCCCCCOc2cccc(/C=C3\N=C4SCCCN4C3=O)c2)cc1

-37
3
4
5
0
